Overview of reported pKi across a group of compounds:
Target: QR2 (Homo sapiens)
Sequence (P16083 whole entry): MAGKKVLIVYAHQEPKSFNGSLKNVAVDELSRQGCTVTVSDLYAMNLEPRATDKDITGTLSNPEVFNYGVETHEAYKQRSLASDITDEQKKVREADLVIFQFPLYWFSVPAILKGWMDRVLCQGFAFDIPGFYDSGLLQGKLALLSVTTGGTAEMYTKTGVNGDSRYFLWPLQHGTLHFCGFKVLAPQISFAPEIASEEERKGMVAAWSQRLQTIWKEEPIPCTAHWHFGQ
Assay: QR2 activity assay with recombinant QR2 (Example 2)
Format: biochemical
Set-up: GST (N, cleaved yes); made in house; E. coli only by inference
pKi: −log10 of the molar value.

# compound, assayed-target, pKi
data = [
    ("CCN(CC)CCCC(C)Nc1c2ccc(Cl)cc2nc2ccc(OC)cc12 (centres unmarked)", "QR2 (Homo sapiens)", 6.29),
    ("COc1cc(NC(C)CCCN)c2ncccc2c1 (centres unmarked)", "QR2 (Homo sapiens)", 5.98),
]

====

Molecular target: QR2 (Homo sapiens)
Experiment: hQR2 activity assay, enzyme purified from human RBC (Example 1)
Assay type: biochemical
Design: Pure hALDH was eluted with 5 mM NADH and pure hQR2 with 5 mM NMeN; tissue Valley Biomedical (blood); host or cells: human red blood cells
observed-property: Kd (µM)

# compound, observed-result
measured = [
    ("COc1cc(NC(C)CCCN)c2ncccc2c1 (stereo not shown) [PQ, primaquine]", 9.3),
]
